System: human monocyte-macrophages (HMMs)
ASSAY_OVERVIEW: MTT toxicity assay, HMMs, seven days (Example 3)
Assay type: cell-based
TEST_PARAMETERS: 10 uM, 7 days, MTT, mean of three experiments
Field: Cell viability by MTT, percent of control. Provide a value for each of the compounds that follow.
Numbers only.

compound="O=C1CCc2cc(OCCCCc3nnnn3C3CCCCC3)ccc2N1 [cilostazol]" numeric_result=79.83

Field: Cell viability by MTT, percent of control. Fill in for each record below.
1. O=C1NCCc2c(OCCCCN3CCCCC3)cccc21 [DPQ]
2. CC(=O)CCCCn1c(=O)c2c(ncn2C)n(C)c1=O [Pentoxifylline, pentoxifylline]

(A)
1: 91.82; 2: 88.35

###

Tested on: bovine vascular smooth muscle cells (bVSMCs)
Type: cell-based
TEST_PARAMETERS: 20 uM, 7 days, MTT, mean of three experiments
Marks after values point to notes of the source that are not given here.
ATTRIBUTE_MEASURED: Cell viability of bVSMCs after seven days (MTT signal, relative to control)

Consider the reported Cell viability of bVSMCs after seven days (MTT signal, relative to control) for these molecules:
molecule=O=C1NCCc2c(OCCCCN3CCCCC3)cccc21 result=94.24*
molecule="NC(=O)c1cccc(N)c1 [3-AB, 3-aminobenzamide]" result=93.42*

(Q) Requested read-out Cell viability of bVSMCs after seven days (MTT signal, relative to control), target or system bovine vascular smooth muscle cells (bVSMCs), entry CN(C)CC(=O)Nc1ccc2[nH]c(=O)c3ccccc3c2c1.Cl
(A) 99.71

Reference source for all entries: patent US10159685B2
